target.desc: Rat 11β-HSD1 (Rattus norvegicus)
Construct: endogenous in cells; host or cells: primary adult Sprague-Dawley rat Leydig cells
Sequence (P16232 whole entry): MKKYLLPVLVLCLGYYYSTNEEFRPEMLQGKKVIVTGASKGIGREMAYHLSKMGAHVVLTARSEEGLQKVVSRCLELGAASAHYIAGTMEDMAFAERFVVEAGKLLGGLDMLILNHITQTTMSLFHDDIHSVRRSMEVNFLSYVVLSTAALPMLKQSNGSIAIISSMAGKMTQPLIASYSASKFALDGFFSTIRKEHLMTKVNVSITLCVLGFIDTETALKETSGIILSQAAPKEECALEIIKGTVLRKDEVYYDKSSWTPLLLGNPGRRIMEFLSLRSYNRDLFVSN
test.summary: 11β-HSD1 assay in intact rat Leydig cells
Format: cell-based
assay.setup: intact rat Leydig cells, relative to curcumin
Binarize Rat 11β-HSD1 Potency to Curcumin (fold) at 2 fold; below is y, at or above is n.

Challenge: # check: Rat 11β-HSD1 Potency to Curcumin (fold) < 2 fold for `O=C(/C=C/c1cccs1)/C=C/c1cccs1`
Response given: n

Challenge: # check: Rat 11β-HSD1 Potency to Curcumin (fold) < 2 fold for `Cc1ccc(/C=C2\CC/C(=C\c3ccc(C)s3)C2=O)s1`
Response given: n

Challenge: # check: Rat 11β-HSD1 Potency to Curcumin (fold) < 2 fold for `O=C1/C(=C/c2cccs2)CCC/C1=C\c1cccs1`
Response given: n

Challenge: # check: Rat 11β-HSD1 Potency to Curcumin (fold) < 2 fold for `O=C1/C(=C/c2cccs2)CC/C1=C\c1cccs1`
Response given: n

Challenge: # check: Rat 11β-HSD1 Potency to Curcumin (fold) < 2 fold for `Cc1ccsc1/C=C/C(=O)/C=C/c1sccc1C`
Response given: n

Challenge: # check: Rat 11β-HSD1 Potency to Curcumin (fold) < 2 fold for `O=C1/C(=C/c2ccc(Br)o2)CCC/C1=C\c1ccc(Br)o1`
Response given: y

Challenge: # check: Rat 11β-HSD1 Potency to Curcumin (fold) < 2 fold for `Cn1cccc1/C=C1\CCC/C(=C\c2cccn2C)C1=O`
Response given: y

Challenge: # check: Rat 11β-HSD1 Potency to Curcumin (fold) < 2 fold for `Cc1ccc(/C=C2\CCC/C(=C\c3ccc(C)s3)C2=O)s1`
Response given: y

Challenge: # check: Rat 11β-HSD1 Potency to Curcumin (fold) < 2 fold for `O=C1/C(=C/c2ccc(Br)o2)CC/C1=C\c1ccc(Br)o1`
Response given: y

Challenge: # check: Rat 11β-HSD1 Potency to Curcumin (fold) < 2 fold for `O=C(/C=C/c1ccc(Br)o1)/C=C/c1ccc(Br)o1`
Response given: y
